Test system: MS2 coat protein
protocol_text: apparent KD of MS2 coat protein, switch ON state; designed switch direction (-1 OFF switch, 1 ON switch): -1; higher = weaker reporter binding
condition_context: FMN input: 0 or 200 uM; Eterna round: R93 (includes R88 designs)
observation_type: apparent KD of MS2 coat protein (nM)

AAGUGCGCAGGAUAUACAUGAGGAUCACCCAUGUAAAGAAAAGAAAGAUCCGAAGAAAGUAGAAGGGCGUGCAA [Variant 1 of Mod 1 of Ex3 sub 3, by Tesla's Dusciple Round 1]	49.6
AGCUAGUCAGGAUAUACAAACAUGUCAAAAGACGUGAAAAGACAUGAGGAUCACCCAUGUAGAAGGGACUAGCA [Mat - Exclusion 2 - JL mod - D14]	29.8
AUAAAACAUGAGGAUCACCCAUGUGAGGAUAUGCGAAAUAAAGAAAUAAAUAAAUAAAGCAGAAGGCACAAUAA [Ex 1 Tesla 1]	34.6

---

Test system: MS2 coat protein
protocol_text: apparent KD of MS2 coat protein, switch OFF state (with FMN for OFF switches, without FMN for ON switches); designed switch direction (-1 OFF switch, 1 ON switch): 1; higher = weaker reporter binding
condition_context: FMN input: 0 or 200 uM; Eterna round: R93 (includes R88 designs)
Classification by apparent KD of MS2 coat protein | ranges: L: < 40 nM; M: ≥ 40 nM and < 70 nM; H: ≥ 70 nM

AGAAAUAAAAGAGAGGAUAUCCAAAAGAAAACAUGAGGAUCACCCAUGUAAAAGAAAAUAAAGUGGGAGAAGGCUCAAAAUAAGA [Jieux modified]	H
GAAAAACAUGAGGAUCACCCAUGUGUAAACAUGGGAGGAUAUACGAAGACGUAAGUCAAAGUAGAAGGCCUAAAAG [Garnet 36]	L
AGAAAUAAAAGUCAGGAUAUGGGUAAGAAAACAUGAGGAUCACCCAUGUAAAAGAAAAUAAAAAACCAGAAGGGACAAAAUAAAG [Reversing G segment in JL's winner (80%) Variant 4]	H
AUAAAUAAAAGUGAGGAUAUCCAAAAAAAAACAUGAGGAUCACCCAUGUAAAAGAAAAUAAAAUGGGAGAAGGCACAAAAUAAAU [SS2 M 10]	L
AAUAAUUAUACGAAGGAUAUCGGUAUUAAGACAUGAGGAUCACCCAUGUAAUAUGGUUAUAUAAACGAGAAGGUCGAGGGUGAAA [JR_SS002_Sub008]	L
AGGAGACAUGAGGAUCACCCAUGUGAGAAGAGGCGAGGAUAUCGAAAGAAAGAAGAGAAACGAGAAGGCGCGAGAG [salish99-SS1-025]	L
AACAGGAAGAGAGAGGAUAUCCAAAGGAAAACAUGAGGAUCACCCAUGUAAAAGGUAGGAAAUUGGGAGAAGGCUCAAGAGAGAG [salish99-ss2-089]	M
UUUAGUUGCGGGCAGGAUAUGUAUUAAAAUACAUGAGGAUCACCCAUGUGCGGGUAUAACACCCGACAGAAGGGCCAAUCGCGAC [Laonerce]	H
AUGAAAGUAACACAGGAUAUCGAGGAUACAACAUGAGGAUCACCCAUGUACAUACGAACGUAUAACGAGAAGGGUGGAUGAUCUUC [ss2]	M
GAAAAACAUGAGGAUCACCCAUGUAGAAAUAUGGGAGGAUAUACGAAGUCGAAAGACAAAGUAGAAGGCCUAAAAG [Garnet 27]	M
AUAAAACAUGAGGAUCACCCAUGUAGAAAUAUGGGAGGAUAUACGAAGACGAAAGUCGAAGUAGAAGGCCUAAAAG [Mat - Same State 1 - Meechl mod - D116]	M
